# ASSAY_SYSTEM: T1, mOrai1-hOrai1 ECL2 (…) protein (human/mouse chimera, UniProt Q8BWG9 1-304 (mouse entry))
# T1 construct: also called Ch
# T1 sequence (Q8BWG9 other isoform, or with tags, fused parts or gaps): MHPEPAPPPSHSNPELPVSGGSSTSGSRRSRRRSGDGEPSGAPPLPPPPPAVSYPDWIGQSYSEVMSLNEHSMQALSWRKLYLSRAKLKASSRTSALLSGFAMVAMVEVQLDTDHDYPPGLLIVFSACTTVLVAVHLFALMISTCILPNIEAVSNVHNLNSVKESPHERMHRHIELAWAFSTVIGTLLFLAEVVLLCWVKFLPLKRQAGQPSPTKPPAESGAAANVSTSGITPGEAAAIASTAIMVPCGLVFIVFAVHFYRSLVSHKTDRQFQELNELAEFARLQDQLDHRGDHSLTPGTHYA
# ASSAY_NOTES: FACS, 293EBNA
# Parameters: concentration or dose not given beside the values
MEASURED_ATTRIBUTE: POC (percent of control, FACS Geo Mean relative to binding to Ch. 1)

Use the examples below as a reference point.
1. mAb 5F2.1 (antibody, human IgG2, lambda, V domains shown, fully human IgG2 lambda, Campaign 2) VH: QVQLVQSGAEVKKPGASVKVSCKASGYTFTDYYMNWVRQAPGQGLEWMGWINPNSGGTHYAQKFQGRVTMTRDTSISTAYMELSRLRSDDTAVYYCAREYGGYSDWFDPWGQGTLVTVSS VL: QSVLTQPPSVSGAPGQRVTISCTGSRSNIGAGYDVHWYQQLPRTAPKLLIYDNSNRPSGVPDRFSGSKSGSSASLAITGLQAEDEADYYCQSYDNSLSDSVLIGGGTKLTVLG
< 1%
2. mAb 5A4.2 (antibody, human IgG2, lambda, V domains shown, fully human IgG2 lambda, Campaign 2) VH: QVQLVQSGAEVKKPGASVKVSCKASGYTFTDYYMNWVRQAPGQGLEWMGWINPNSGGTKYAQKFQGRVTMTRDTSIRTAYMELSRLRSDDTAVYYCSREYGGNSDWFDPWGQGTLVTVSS VL: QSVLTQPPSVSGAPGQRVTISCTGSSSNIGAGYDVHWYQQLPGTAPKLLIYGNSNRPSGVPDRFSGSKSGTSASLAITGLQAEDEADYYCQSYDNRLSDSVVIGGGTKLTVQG
< 1%

Then this binder:
QUERY: Could you tell me which POC (percent of control, FACS Geo Mean relative to binding to Ch. 1) is on file for mAb 2D2.1 (antibody, human IgG2, lambda, V domains shown, fully human IgG2 lambda, Campaign 1; also called mAb 2D.1) VH: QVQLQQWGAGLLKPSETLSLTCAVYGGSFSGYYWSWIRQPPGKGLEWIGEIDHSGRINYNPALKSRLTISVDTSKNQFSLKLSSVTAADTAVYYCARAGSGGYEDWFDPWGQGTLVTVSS VL: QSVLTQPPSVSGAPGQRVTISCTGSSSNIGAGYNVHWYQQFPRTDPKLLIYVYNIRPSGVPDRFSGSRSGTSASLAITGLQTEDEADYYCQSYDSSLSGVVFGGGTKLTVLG ?
RESULT: < 1%
